Origin of measurements: patent US20150322474A1

Target: T1, VGAGIGFPAYDG peptide substrate
T1 chain: VGAGIGFPAYDG
recordedMetric: Linear ion count (%) (M + H = 717)

{"columns": ["protein", "recordedMetric", "reading"],
 "data": [
  ["PatGmac K594D (protein) GEDEIESAGVSASEVESSATKQKVALHPHDLDERIPGLADLHNQTLGDPQITIVIIDGDPDYTLSCFEGAEVSKVFPYWHEPAEPITPEDYAAFQSIRDQGLDGKEKEEALEAVIPDTKDRIVLNDHACHVTSTIVGQEHSPVFGIAPNCRVINMPQDAVIRGNYDDVMSPLNLARAIDLALELGANIIHCAFCRPTQTSEGEEILVQAIKKCQDNNVLIVSPTGNNSNESWCLPAVLPGTLAVGAAKVDGTPCHFSNWGGNNTKEGILAPGEEILGAQPCTEEPVRLTGTSMAAPVMTGISALLMSLQVQQGKPVDAEAVRTALLKTAIPCDPEVVEEPERCLRGFVNIPGAMKVLFGQ", "Linear ion count (%) (M + H = 717)", 71],
  ["PatGmacΔ1 (deletion of residues 578-608, the helix-loop-helix insertion motif) (protein) GEDEIESAGVSASEVESSATKQKVALHPHDLDERIPGLADLHNQTLGDPQITIVIIDGDPDYTLSCFEGAEVSKVFPYWHEPAEPITKDRIVLNDHACHVTSTIVGQEHSPVFGIAPNCRVINMPQDAVIRGNYDDVMSPLNLARAIDLALELGANIIHCAFCRPTQTSEGEEILVQAIKKCQDNNVLIVSPTGNNSNESWCLPAVLPGTLAVGAAKVDGTPCHFSNWGGNNTKEGILAPGEEILGAQPCTEEPVRLTGTSMAAPVMTGISALLMSLQVQQGKPVDAEAVRTALLKTAIPCDPEVVEEPERCLRGFVNIPGAMKVLFGQ", "Linear ion count (%) (M + H = 717)", 92],
  ["PatGmac wild-type (macrocyclase domain of PatG, residues 492-851) (protein) GEDEIESAGVSASEVESSATKQKVALHPHDLDERIPGLADLHNQTLGDPQITIVIIDGDPDYTLSCFEGAEVSKVFPYWHEPAEPITPEDYAAFQSIRDQGLKGKEKEEALEAVIPDTKDRIVLNDHACHVTSTIVGQEHSPVFGIAPNCRVINMPQDAVIRGNYDDVMSPLNLARAIDLALELGANIIHCAFCRPTQTSEGEEILVQAIKKCQDNNVLIVSPTGNNSNESWCLPAVLPGTLAVGAAKVDGTPCHFSNWGGNNTKEGILAPGEEILGAQPCTEEPVRLTGTSMAAPVMTGISALLMSLQVQQGKPVDAEAVRTALLKTAIPCDPEVVEEPERCLRGFVNIPGAMKVLFGQ", "Linear ion count (%) (M + H = 717)", 0]
]}
